Details: buffer; pH 7.4; 200.0 µM
# solubility kinetic annotations
Entry rule: numbers only, all in µg/mL.

The examples below pair each entry with its known result.
[[record]]
chemical_structure = "Cc1cc(C)c2c(N)c(C(=O)c3ccc(Br)cc3)oc2n1"
outcome_measure = "solubility kinetic"
measured = 1.2

[[record]]
chemical_structure = "COC(=O)c1ccc(S(=O)(=O)NC(C)(C)C)n1C"
outcome_measure = "solubility kinetic"
measured = 40.2

[[record]]
chemical_structure = "O=C(COC(=O)/C=C/c1cccc(Cl)c1)NCc1cccs1"
outcome_measure = "solubility kinetic"
measured = 6.1

[[record]]
chemical_structure = "Cc1nc2nc(-c3cccs3)[nH]c2cc1Br"
outcome_measure = "solubility kinetic"
measured = 3.8

[[record]]
chemical_structure = "CC(C)(C)OC(=O)N1CCCN(C(=O)Nc2ccccc2)CC1"
outcome_measure = "solubility kinetic"
measured = 46.3

[[record]]
chemical_structure = "COc1ccc(NC(=O)CCCC(=O)c2ccccc2)cc1"
outcome_measure = "solubility kinetic"
measured = 7.1


Ask: Need solubility kinetic of `Cc1ccc(/C=C2/SC(=Nc3ccc(F)cc3)NC2=O)s1` , thanks.
Result: 0.8

Ask: May I ask what solubility kinetic has been recorded for `CC(=O)c1cccc(NC(=O)c2ccc3c(c2)OCO3)c1` ?
Result: 2.2
